Taken from ChEMBL document CHEMBL2407086.

Assay: Effective permeability of the compound in human Caco2 cells at 50 uM after 15 to 90 mins
Format: ADME, cell-based
Settings: Caco-2, read-out: Peff
Reported Endpoint: Papp at 50 µM (×10⁻⁶ cm/s)
Numbers only, in ×10⁻⁶ cm/s.

Compound: CC[C@@]1(O)C(=O)OCc2c1cc1n(c2=O)Cc2cc3c(CN4CCCC4=O)c(O)ccc3nc2-1
Measure Unit: ×10⁻⁶ cm/s
Readout Number: 0.48
--
Compound: CC[C@@]1(O)C(=O)OCc2c1cc1n(c2=O)Cc2cc3ccccc3nc2-1 [CAMPTOTHECIN]
Measure Unit: ×10⁻⁶ cm/s
Readout Number: 7.88
--
Compound: CC[C@@]1(O)C(=O)OCc2c1cc1n(c2=O)Cc2cc3c(CN(C)C)c(O)ccc3nc2-1 [TOPOTECAN]
Measure Unit: ×10⁻⁶ cm/s
Readout Number: 1.77
--
Compound: CC[C@@]1(O)C(=O)OCc2c1cc1n(c2=O)Cc2cc3c(CNC(C)=O)c(O)ccc3nc2-1
Measure Unit: ×10⁻⁶ cm/s
Readout Number: 1.17
--
Compound: CC[C@@]1(O)C(=O)OCc2c1cc1n(c2=O)Cc2cc3c(CN4C(=O)C5=C(CCCC5)C4=O)c(OC)ccc3nc2-1
Measure Unit: ×10⁻⁶ cm/s
Readout Number: 4.91

Switching to the query record.
Q) May I ask what Papp at 50 µM has been recorded for CC[C@@]1(O)C(=O)OCc2c1cc1n(c2=O)Cc2cc3cc(O)ccc3nc2-1 [HYDROXYCAMPTOTHECIN] ?
A) 7.88

====

Tested on: MDA-MB-231
Assay: Cytotoxicity against human MDA-MB-231 cells after 72 hrs by MTT assay
Type: functional, cell-based
Conditions: MDA-MB-231, 72 h
Reported Endpoint: pIC50
Numbers only, as −log10 of the molar value.

Compound: CC[C@@]1(O)C(=O)OCc2c1cc1n(c2=O)Cc2cc3c(CN4C(=O)C5=C(CCCC5)C4=O)c(OC)ccc3nc2-1
pIC50: 6.30

Kindly consider the entry below.
Q) Identify the measured pIC50 of CC[C@@]1(O)C(=O)OCc2c1cc1n(c2=O)Cc2cc3ccccc3nc2-1 [CAMPTOTHECIN] for MDA-MB-231.
A) 6.79

====

Test system: MOLT-4
Experiment: Cytotoxicity against human MOLT4 cells after 72 hrs by MTT assay
Type: functional, cell-based
Details: MOLT-4, 72 h
Consider the following compounds; for each one, report its IC50.
Answers are plain numbers, in nM.

See these solved cases before continuing.
Molecule: CC[C@@]1(O)C(=O)OCc2c1cc1n(c2=O)Cc2cc3c(CN(C)C)c(O)ccc3nc2-1
IC50 [nM]: 19
//
Molecule: CC[C@@]1(O)C(=O)OCc2c1cc1n(c2=O)Cc2cc3c(CN4C(=O)C5=C(CCCC5)C4=O)c(O)ccc3nc2-1
IC50 [nM]: 15
//
Molecule: CC[C@@]1(O)C(=O)OCc2c1cc1n(c2=O)Cc2cc3ccccc3nc2-1
IC50 [nM]: 0.04

--- query ---
Q) Which IC50 value belongs to CC[C@@]1(O)C(=O)OCc2c1cc1n(c2=O)Cc2cc3c(CN4C(=O)C5=C(CCCC5)C4=O)c(OC)ccc3nc2-1 ?
A) 14

====

Experiment: Effective permeability of the compound in human Caco2 cells at 50 uM after 15 to 90 mins in presence of sodium azide
Format: ADME, cell-based
Details: Caco-2, with sodium azide (concentration not stated), read-out: Peff
# if value of Papp at 50 µM reaches 2 ×10⁻⁶ cm/s, tag Condition met; if it stays below, tag Condition not met

Recorded results for 4 compounds are shown here.
Compound: CC[C@@]1(O)C(=O)OCc2c1cc1n(c2=O)Cc2cc3cc(O)ccc3nc2-1 [HYDROXYCAMPTOTHECIN]
Answer Label: Condition not met
//
Compound: CC[C@@]1(O)C(=O)OCc2c1cc1n(c2=O)Cc2cc3c(CN4CCCC4=O)c(O)ccc3nc2-1
Answer Label: Condition not met
//
Compound: CC[C@@]1(O)C(=O)OCc2c1cc1n(c2=O)Cc2cc3c(CN(C)C)c(O)ccc3nc2-1
Answer Label: Condition met
//
Compound: CC[C@@]1(O)C(=O)OCc2c1cc1n(c2=O)Cc2cc3c(CNC(C)=O)c(O)ccc3nc2-1
Answer Label: Condition not met

Q) Dear colleague, could you confirm whether CC[C@@]1(O)C(=O)OCc2c1cc1n(c2=O)Cc2cc3ccccc3nc2-1 has Papp at 50 µM at or above 2 ×10⁻⁶ cm/s?
A) Condition not met

Q) Please indicate if the recorded Papp at 50 µM for CC[C@@]1(O)C(=O)OCc2c1cc1n(c2=O)Cc2cc3c(CN4C(=O)C5=C(CCCC5)C4=O)c(OC)ccc3nc2-1 meets or exceeds 2 ×10⁻⁶ cm/s.
A) Condition met
